Data credit: ChEMBL document CHEMBL1155526

Experiment: Bioavailability in cynomolgus monkey at 2 mg/kg, iv or 10 mg/kg, po
Settings: in vivo
PROPERTY: bioavailability (%)
# number only, unit % dropped from output

Please give the documented bioavailability of CC(C)[C@]1(C)SC(N[C@H]2C[C@@H]3CC[C@H]2C3)=NC1=O 7

----------
Assay: Bioavailability in Sprague-Dawley rat at 2 mg/kg, iv or 10 mg/kg, po
Conditions: in vivo
PROPERTY: bioavailability (%)
# number only, unit % dropped from output

Please give the documented bioavailability of CC(C)[C@]1(C)SC(N[C@H]2C[C@@H]3CC[C@H]2C3)=NC1=O 34
